method notes: Solubility determination (shaking 24 hours, HPLC)
Format: physicochemical
measurement setup: fasted-state simulated intestinal fluid (FaSSIF), thermodynamic from solid; FaSSIF, shaking 24 hours; read-out: Solubility, fasted-state simulated intestinal fluid (FaSSIF)
value type: solubility at 24 h (µg/mL)
Numbers only, in µg/mL.

*Q* Item under review: C[C@H](Cn1cnc2c(N)ncnc21)OC[P@@](=O)(NCCOCc1ccccc1)Oc1ccccc1 . Reported solubility at 24 h?
*A* 910

###

method notes: Pharmacokinetic experiment in beagle dogs
Assay type: in vivo
measurement setup: beagle, dog, venous blood, po, 2.5 mg/kg, capsules intragastrically, analyte: free base of the compound of Formula (I)
value type: AUC(0-inf)

*Q* Item under review: C[C@H](Cn1cnc2c(N)ncnc21)OC[P@@](=O)(NCCOCc1ccccc1)Oc1ccccc1 . Reported AUC(0-inf)?
*A* 66.7 ng·h/mL

The origin of these recorded values is patent US11186599B2.
